target: Endoribonuclease Dicer (Homo sapiens) (UniProt Q9UPY3); assay: Dicer cleavage of pre-miR-21 blockers – biochemical, cat-ELCCA, chemiluminescence, primary screen (AID 1347074); conditions: cat-ELCCA pre-miR-21 Dicer processing, at 25 µM, hits give high values;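 also: plate controls were vehicle for no effect and no enzyme for full effect; higher signal means more uncleaved substrate so more Dicer inhibition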
Sequence (Q9UPY3 whole entry, looked up): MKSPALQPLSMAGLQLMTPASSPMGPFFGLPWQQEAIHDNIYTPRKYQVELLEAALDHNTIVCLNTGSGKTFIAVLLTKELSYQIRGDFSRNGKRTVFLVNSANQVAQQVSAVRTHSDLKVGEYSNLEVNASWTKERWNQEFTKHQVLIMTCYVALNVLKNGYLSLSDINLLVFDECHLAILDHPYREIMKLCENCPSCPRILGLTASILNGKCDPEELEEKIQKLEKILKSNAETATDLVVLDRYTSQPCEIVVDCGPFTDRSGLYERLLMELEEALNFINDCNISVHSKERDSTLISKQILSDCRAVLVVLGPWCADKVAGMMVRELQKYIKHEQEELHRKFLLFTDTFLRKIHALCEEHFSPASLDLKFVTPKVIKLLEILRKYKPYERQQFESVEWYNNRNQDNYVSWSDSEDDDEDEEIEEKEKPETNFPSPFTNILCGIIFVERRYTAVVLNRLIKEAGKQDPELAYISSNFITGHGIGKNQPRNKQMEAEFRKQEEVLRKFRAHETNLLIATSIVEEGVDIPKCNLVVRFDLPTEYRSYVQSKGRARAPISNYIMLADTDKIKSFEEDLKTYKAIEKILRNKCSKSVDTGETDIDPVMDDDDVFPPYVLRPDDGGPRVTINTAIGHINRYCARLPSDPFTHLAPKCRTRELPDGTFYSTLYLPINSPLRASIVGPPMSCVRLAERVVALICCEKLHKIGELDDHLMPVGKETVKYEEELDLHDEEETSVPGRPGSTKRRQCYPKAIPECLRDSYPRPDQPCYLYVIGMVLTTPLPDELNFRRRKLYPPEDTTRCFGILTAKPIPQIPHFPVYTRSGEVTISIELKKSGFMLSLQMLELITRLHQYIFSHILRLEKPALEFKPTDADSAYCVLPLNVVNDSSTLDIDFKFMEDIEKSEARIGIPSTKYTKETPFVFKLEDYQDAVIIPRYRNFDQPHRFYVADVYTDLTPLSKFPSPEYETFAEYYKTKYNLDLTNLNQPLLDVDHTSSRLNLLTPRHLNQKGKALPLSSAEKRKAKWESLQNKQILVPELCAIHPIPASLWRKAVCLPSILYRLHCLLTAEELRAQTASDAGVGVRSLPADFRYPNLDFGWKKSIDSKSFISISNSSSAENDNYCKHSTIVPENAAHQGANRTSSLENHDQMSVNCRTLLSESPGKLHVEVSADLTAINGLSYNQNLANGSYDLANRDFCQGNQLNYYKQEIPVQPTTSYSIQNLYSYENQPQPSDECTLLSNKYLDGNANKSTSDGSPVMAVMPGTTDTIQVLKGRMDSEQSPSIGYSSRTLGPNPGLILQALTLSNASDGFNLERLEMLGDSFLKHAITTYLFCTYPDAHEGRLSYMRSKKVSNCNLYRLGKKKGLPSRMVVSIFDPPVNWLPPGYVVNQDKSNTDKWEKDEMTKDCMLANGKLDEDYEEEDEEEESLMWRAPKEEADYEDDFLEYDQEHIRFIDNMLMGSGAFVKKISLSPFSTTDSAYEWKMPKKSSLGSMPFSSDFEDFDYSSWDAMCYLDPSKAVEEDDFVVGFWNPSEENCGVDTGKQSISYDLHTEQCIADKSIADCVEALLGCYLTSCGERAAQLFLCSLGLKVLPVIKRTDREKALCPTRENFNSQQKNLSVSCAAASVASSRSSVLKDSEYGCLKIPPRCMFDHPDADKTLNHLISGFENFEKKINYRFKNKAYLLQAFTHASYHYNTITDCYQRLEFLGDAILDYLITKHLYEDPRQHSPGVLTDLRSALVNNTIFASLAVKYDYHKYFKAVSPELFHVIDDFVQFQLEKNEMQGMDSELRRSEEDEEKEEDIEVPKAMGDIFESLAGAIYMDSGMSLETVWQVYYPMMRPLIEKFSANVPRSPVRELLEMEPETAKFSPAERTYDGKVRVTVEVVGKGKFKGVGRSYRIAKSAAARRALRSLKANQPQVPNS
Hit rate of the full screen: of about 47,000 compounds, about 2,800 (6%) were called active. Only a selection was taken, and actives are over-represented in it overall.
property measured: z-score
Reply with the value as a number alone.

- molecule: "CCN1C(=O)C2(/C(=C(/O)c3ccc(OC)c(C)c3)C(=O)C(=O)N2CCCOC)c2ccccc21 (centres undefined)"
  z-score: 1.63
- molecule: "O=C1CC(c2ccc(F)cc2)Cc2nc3nc(C(F)(F)F)nn3cc21 (centres undefined)"
  z-score: -0.42
- molecule: "CCOC(=O)N/N=C/c1ccccc1Cl"
  z-score: -1.05
- molecule: "Oc1ccccc1C=NCCCN=Cc1ccccc1O"
  z-score: 4.14
- molecule: "COC(=O)c1ccc([C@@H]2Nc3ccc(F)cc3[C@@H]3C=CC[C@@H]32)cc1"
  z-score: 0.68
- molecule: "C1=CC2CC1CC2CN1CCN(Cc2c[nH]c3ccccc23)CC1 (centres undefined)"
  z-score: 4.79

Record CC(C)C(=O)NNc1ncc(C(F)(F)F)cc1Cl : what is its z-score with Endoribonuclease Dicer (Homo sapiens) (UniProt Q9UPY3)? 0.4

Record Clc1ccc(-c2csc(N/N=C\c3ccn[nH]3)n2)cc1 : what is its z-score with Endoribonuclease Dicer (Homo sapiens) (UniProt Q9UPY3)? 0.61

Record O=C(O)C1Nc2ccc(Cl)cc2C2C=CCC12 (centres undefined) : what is its z-score with Endoribonuclease Dicer (Homo sapiens) (UniProt Q9UPY3)? 15.4

Record Cn1c(C(=O)O)ccc1S(=O)(=O)N(Cc1ccccc1)Cc1ccccc1 : what is its z-score with Endoribonuclease Dicer (Homo sapiens) (UniProt Q9UPY3)? -0.36

Record Oc1ccccc1-c1nc(/C=C/c2ccc(F)cc2)no1 : what is its z-score with Endoribonuclease Dicer (Homo sapiens) (UniProt Q9UPY3)? -0.19
